Target: BRM (Homo sapiens, UniProt P51531)
Construct: In-Cell Western Screen of BRM Degradation in SW1573 Cells; endogenous in cells; host or cells: SW1573
Sequence (P51531 whole entry): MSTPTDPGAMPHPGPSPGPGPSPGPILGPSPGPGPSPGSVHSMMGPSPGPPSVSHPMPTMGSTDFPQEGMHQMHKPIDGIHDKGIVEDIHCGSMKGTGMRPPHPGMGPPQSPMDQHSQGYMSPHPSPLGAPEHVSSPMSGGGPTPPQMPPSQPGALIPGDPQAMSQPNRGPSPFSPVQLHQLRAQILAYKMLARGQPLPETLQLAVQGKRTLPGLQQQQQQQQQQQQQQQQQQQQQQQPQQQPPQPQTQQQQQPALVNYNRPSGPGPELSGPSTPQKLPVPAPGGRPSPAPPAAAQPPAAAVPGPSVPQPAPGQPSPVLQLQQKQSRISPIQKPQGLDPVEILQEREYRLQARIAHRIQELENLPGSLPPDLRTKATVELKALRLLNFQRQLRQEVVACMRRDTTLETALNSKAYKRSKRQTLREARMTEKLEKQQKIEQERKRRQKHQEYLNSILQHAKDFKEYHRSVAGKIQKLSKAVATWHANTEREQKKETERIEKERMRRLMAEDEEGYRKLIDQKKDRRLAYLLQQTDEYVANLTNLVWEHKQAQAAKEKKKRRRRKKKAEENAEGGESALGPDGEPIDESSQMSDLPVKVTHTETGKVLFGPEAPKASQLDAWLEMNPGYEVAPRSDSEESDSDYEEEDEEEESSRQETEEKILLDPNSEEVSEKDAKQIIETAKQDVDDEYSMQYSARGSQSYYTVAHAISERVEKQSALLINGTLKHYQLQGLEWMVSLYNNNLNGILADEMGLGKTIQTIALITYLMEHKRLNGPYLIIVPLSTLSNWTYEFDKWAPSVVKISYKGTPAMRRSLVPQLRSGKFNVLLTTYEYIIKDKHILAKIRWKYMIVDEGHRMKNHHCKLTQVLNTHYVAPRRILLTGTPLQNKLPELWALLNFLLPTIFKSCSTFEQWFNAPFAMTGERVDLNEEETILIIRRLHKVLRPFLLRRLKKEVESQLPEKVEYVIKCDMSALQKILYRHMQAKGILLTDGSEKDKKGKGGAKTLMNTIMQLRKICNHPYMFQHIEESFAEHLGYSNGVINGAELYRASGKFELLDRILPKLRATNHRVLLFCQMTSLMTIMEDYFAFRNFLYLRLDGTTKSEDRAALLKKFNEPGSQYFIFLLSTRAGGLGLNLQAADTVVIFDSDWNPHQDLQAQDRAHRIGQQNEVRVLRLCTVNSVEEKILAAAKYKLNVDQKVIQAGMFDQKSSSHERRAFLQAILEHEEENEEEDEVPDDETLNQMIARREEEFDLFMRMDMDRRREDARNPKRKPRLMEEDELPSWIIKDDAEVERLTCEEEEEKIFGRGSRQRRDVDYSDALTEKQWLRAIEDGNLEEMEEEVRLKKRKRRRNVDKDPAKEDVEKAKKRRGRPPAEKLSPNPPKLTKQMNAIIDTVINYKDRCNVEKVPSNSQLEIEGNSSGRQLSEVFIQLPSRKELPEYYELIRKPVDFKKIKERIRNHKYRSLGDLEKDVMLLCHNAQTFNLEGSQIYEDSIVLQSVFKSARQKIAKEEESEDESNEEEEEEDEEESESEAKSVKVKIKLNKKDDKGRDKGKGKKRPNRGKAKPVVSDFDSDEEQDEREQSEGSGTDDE
Assay: In-cell Western screen of BRM degradation in SW1573 cells (Dmax and DC50)
Assay type: cell-based
Settings: degradation of BRM; read-out: BRM DC50
Description: In-Cell Western Screen of BRM Degradation in SW1573 Cells […] To read each plate TBS-T was removed, and each plate was inverted tapped on a paper towel. The plates were read on the LI-COR Odyssey with default intensity settings of 5.0 for both channels. LI-COR images were analyzed with the in-cell Western feature of Image Studio Lite.
Give DC50 for every item shown.

Below are worked cases with known answers.
Cc1ncsc1-c1ccc([C@H](C)NC(=O)[C@@H]2C[C@@H](O)CN2C(=O)[C@@H](c2cc(OCCN3CCC(O[C@H]4C[C@H](C#C[C@H](C)n5cc(-c6cc(-c7ccccc7O)nnc6N)cn5)C4)CC3)no2)C(C)C)cc1 [compound 415] | < 2.5 nM
Cc1ncsc1-c1ccc([C@H](C)NC(=O)[C@@H]2C[C@@H](O)CN2C(=O)[C@H](c2cc(OCCN3CCN(CCO[C@H]4C[C@H](Oc5cc(N6C7CCC6CN(c6cc(-c8ccccc8O)nnc6N)C7)ccn5)C4)CC3)no2)C(C)C)cc1 [compound 407] | > 30 nM
Cc1ncsc1-c1ccc([C@@H](C)NC(=O)[C@H]2C[C@H](O)CN2C(=O)[C@H](c2cc(OCCN3CCC(O)(CN4CC(Oc5cc(N6C7CCC6CN(c6cc(-c8ccccc8O)nnc6N)C7)ccn5)C4)CC3)no2)C(C)C)cc1 (mixture of isomers) [compound 446] | > 30 nM
Cc1ncsc1-c1ccc([C@H](C)NC(=O)[C@@H]2C[C@@H](O)CN2C(=O)[C@H](c2cc(OCCC3CCN([C@H]4C[C@H](CN5CCOC6(CCN(c7cc(-c8ccccc8O)nnc7N)CC6)C5)C4)CC3)no2)C(C)C)cc1 [compound 444] | < 2.5 nM

Give me DC50 for each of these compounds, listed below.
1. Cc1nccn1-c1ccc([C@@H](C)NC(=O)[C@H]2C[C@H](O)CN2C(=O)[C@@H](c2cc(N3CCN(CC4CCN(C[C@H]5C[C@H](Oc6cc(N7C8CCC7CN(c7cc(-c9ccccc9O)nnc7N)C8)ccn6)C5)CC4)CC3)no2)C(C)C)cc1 (racemic) [compound 447]
2. CC(C)[C@H](C(=O)N1C[C@H](O)C[C@H]1C(=O)NCc1ccc(C2(F)CC2)cc1)c1cc(OCCN2CCC(O[C@H]3C[C@H](Oc4cc(N5C6CCC5CN(c5cc(-c7ccccc7O)nnc5N)C6)ccn4)C3)CC2)no1 [compound 418]
3. Cc1ncsc1-c1ccc([C@H](C)NC(=O)[C@@H]2C[C@@H](O)CN2C(=O)[C@@H](c2cc(N3CCN(CCN4CCC(O[C@H]5C[C@H](Oc6cc(N7C8CCC7CN(c7cc(-c9ccccc9O)nnc7N)C8)ccn6)C5)CC4)CC3)no2)C(C)C)cn1 [compound 402]
4. CC(C)[C@H](C(=O)N1C[C@H](O)C[C@H]1C(=O)N[C@@H](C)c1ccc(C2CC2(F)F)cc1)c1cc(OCCN2CCC(O[C@H]3C[C@H](Oc4cc(N5C6CCC5CN(c5cc(-c7ccccc7O)nnc5N)C6)ccn4)C3)CC2)no1 (some centres unmarked) [compound 438]

["> 30 nM", "> 30 nM", "< 2.5 nM", "> 30 nM"]

Data origin: patent US12539292B2
